EC50: recorded values
Test system: HT-29
ASSAY_REMARKS: Cytotoxicity against human HT29 cells
Format: functional
ASSAY_CONTEXT: read-out: ED50 (the source's name)
EXPERIMENTAL_READOUT: EC50 (µg/mL)

>>> print(df.to_string())
                                   molecule  experimental_readout  endpoint_unit  result_value
0  C=C1C(=O)O[C@@H]2C/C(C)=C/CC/C(C)=C/CC[C@]3(C)O[C@H]3C[C@@H]12 [SARCOCRASSOLIDE]                  EC50          µg/mL          7.55
1  CC(C)[C@@H](C)CC[C@@H](C)[C@H]1CC[C@H]2[C@@H]3C[C@@H](O)[C@@]4(O)C[C@@H](O)CC[C@]4(C)[C@H]3CC[C@]12C                  EC50          µg/mL          8.35
2  C=C1C(=O)O[C@H]2/C=C(\C)CC[C@H](OC(C)=O)[C@@]3(C)CC[C@H](OO3)/C(C)=C\C[C@@H]12 [DENTICULATOLIDE]                  EC50          µg/mL          5.78
3  CC(=O)OC(C)(C)[C@H](C)CC[C@@H](C)[C@H]1CC[C@H]2[C@@H]3C[C@@H](O)[C@@]4(O)C[C@@H](O)CC[C@]4(C)[C@H]3CC[C@]12C                  EC50          µg/mL          4.32
4  C=C1C(=O)O[C@H]2[C@H]1C[C@@H]1O[C@@]1(C)CC/C=C(\C)CC/C=C(\C)[C@@H]2OC(C)=O                  EC50          µg/mL          5.67

###

Tested on: A549
ASSAY_REMARKS: Cytotoxicity against human A549 cells
Format: functional
ASSAY_CONTEXT: read-out: ED50 (the source's name)
EXPERIMENTAL_READOUT: EC50 (µg/mL)

                                   compound  experimental_readout  result_value
0  C=C1C(=O)O[C@H]2/C=C(\C)CC[C@H](OC(C)=O)[C@@]3(C)CC[C@H](OO3)/C(C)=C\C[C@@H]12 [DENTICULATOLIDE]                  EC50          6.46
1  C=C1C(=O)O[C@H]2[C@H]1C[C@@H]1O[C@@]1(C)CC/C=C(\C)CC/C=C(\C)[C@@H]2OC(C)=O                  EC50          4.66
2  CC(C)[C@@H](C)CC[C@@H](C)[C@H]1CC[C@H]2[C@@H]3C[C@@H](O)[C@@]4(O)C[C@@H](O)CC[C@]4(C)[C@H]3CC[C@]12C                  EC50          6.26
3  C=C1C(=O)O[C@@H]2C/C(C)=C/CC/C(C)=C/CC[C@]3(C)O[C@H]3C[C@@H]12 [SARCOCRASSOLIDE]                  EC50          8.31
4  CC(=O)OC(C)(C)[C@H](C)CC[C@@H](C)[C@H]1CC[C@H]2[C@@H]3C[C@@H](O)[C@@]4(O)C[C@@H](O)CC[C@]4(C)[C@H]3CC[C@]12C                  EC50          22.4
